Tested on: HepG2
Experiment: cell viability relative to DMSO; higher = less toxic
Conditions: 72 h; 1000 nM
Each entry below lists one item and its recorded cell viability value.
quantity.name: cell viability (%)

{"compound": "Nc1ncnc2c1c(-c1cccc(OCc3ccccc3)c1)cn2[C@H]1C[C@@H](CN2CCC2)C1", "target.system": "HepG2", "number": 68.1}
{"compound": "C/C(O)=C(\\C#N)C(=O)Nc1ccc(C(F)(F)F)cc1 [teriflunomide]", "target.system": "HepG2", "number": 98.1}
{"compound": "C#C[C@]1(O)CC[C@H]2[C@@H]3CCC4=CC(=O)CC[C@@H]4[C@H]3CC[C@@]21C", "target.system": "HepG2", "number": 100}
{"compound": "C[N+]1(C)CCC(=C(c2ccccc2)c2ccccc2)CC1", "target.system": "HepG2", "number": 97.6}
{"compound": "NCCCCN", "target.system": "HepG2", "number": 97.3}

----------
Tested on: A549-ACE2
Experiment: drug-induced phospholipidosis relative to tamoxifen; higher = more phospholipidosis
Conditions: 6.66667 µM; 48 h
Decide using drug-induced phospholipidosis: a value greater than or equal to 20% is TRUE, a smaller one is FALSE.

{"molecule": "COc1ccc2c(C)nc(Nc3nc(C)c(C)c(O)n3)nc2c1", "assigned.class": "FALSE"}
{"molecule": "C=C1C(=O)O[C@@H]2[C@H]3C(C)=CC[C@@]34O[C@@]4(C)CC[C@@H]12", "assigned.class": "FALSE"}
{"molecule": "CN1CCN(C2CCN(C(=O)Nc3cc(Oc4ccc(NC(=O)C5(C(=O)Nc6ccc(F)cc6)CC5)c(F)c4)ccn3)CC2)CC1", "assigned.class": "TRUE"}
{"molecule": "CCOC(=O)C1=C(COCCN)NC(C)=C(C(=O)OC)C1c1ccccc1Cl (stereo unspecified)", "assigned.class": "FALSE"}
{"molecule": "O=C(NCCN1CCC2(CC1)C(=O)NCN2c1cccc(F)c1)c1ccc(F)c(F)c1", "assigned.class": "TRUE"}
{"molecule": "Cc1ccc(NC(=O)Nc2cc(C(F)(F)F)ccc2F)cc1Nc1ccc2c(c1)NC(=O)/C2=C\\c1ccc[nH]1", "assigned.class": "TRUE"}

----------
Test system: Calu-3
Experiment: cell viability relative to DMSO; higher = less toxic
Conditions: 72 h; 10 nM
Each entry below lists one item and its recorded cell viability value.

{"compound": "COc1ccccc1OCCNCC(O)COc1cccc2[nH]c3ccccc3c12 (stereo not drawn)", "cell viability (%)": 92.2}
{"compound": "COc1ccncc1C(=O)NC(=O)Nc1ccc(-c2ccccc2)c(C(F)(F)F)c1", "cell viability (%)": 97.5}
{"compound": "Cc1onc(-c2c(Cl)cccc2Cl)c1C(=O)N[C@@H]1C(=O)N2[C@@H]1SC(C)(C)[C@@H]2C(=O)O", "cell viability (%)": 84.7}
{"compound": "C[N+](C)(C)CCOC(=O)CCC(=O)OCC[N+](C)(C)C [succinylcholine-chloride]", "cell viability (%)": 103}
{"compound": "C#CCOC(=O)C1=CCCN(C)C1", "cell viability (%)": 103}
{"compound": "Cc1nc(N)sc1CCN", "cell viability (%)": 97.3}
{"compound": "CC[C@@H](C(N)=O)N1CCCC1=O", "cell viability (%)": 91.8}
{"compound": "COc1ccc(COc2cc3oc(=O)c4cc(C(C)O)ccc4c3cc2OC)cc1 (stereo not drawn)", "cell viability (%)": 98.9}
{"compound": "Cc1ccc(-n2sc(=O)n(Cc3ccc(F)cc3)c2=O)cc1", "cell viability (%)": 83.1}
{"compound": "Nc1ncnc2c1c(-c1cccc(OCc3ccccc3)c1)cn2[C@H]1C[C@@H](CN2CCC2)C1", "cell viability (%)": 103}
{"compound": "COc1ccccc1N1CCN(CCCCNC(=O)c2ccc(-c3ccc(C(C)=O)cc3)cc2)CC1", "cell viability (%)": 92.6}
{"compound": "CC[N+](CC)(CC)CCOc1ccc(/C=C/c2ccccc2)cc1", "cell viability (%)": 103}
{"compound": "O=C(CCN1CCN(C(=O)OCc2cc(Cl)cc(Cl)c2)CC1)c1ccc2[nH]c(=O)oc2c1", "cell viability (%)": 101}
{"compound": "NC(=O)CC[C@H](N)C(=O)O", "cell viability (%)": 91.7}
{"compound": "CO[C@H]1C[C@H](O[C@H]2[C@H](C)O[C@@H](O[C@@H]3/C(C)=C/C[C@@H]4C[C@@H](C[C@]5(C=C[C@H](C)[C@@H](C6CCCCC6)O5)O4)OC(=O)[C@@H]4C=C(C)[C@@H](O)[C@H]5OC/C(=C\\C=C\\[C@@H]3C)[C@]54O)C[C@@H]2OC)O[C@@H](C)[C@@H]1O", "cell viability (%)": 95.4}
{"compound": "O=NN(CCCl)C(=O)NC1CCCCC1", "cell viability (%)": 102}
{"compound": "CC1(C)C(=O)N(CCN2CCC(C(=O)c3ccc(F)cc3)CC2)c2ccccc21", "cell viability (%)": 91.4}
{"compound": "Cc1ccccc1OCC(O)CO (stereo not drawn)", "cell viability (%)": 91.1}
{"compound": "CCS(=O)(=O)N1CCC[C@@H]2CN3CCc4cc(OC)ccc4[C@@H]3C[C@@H]21", "cell viability (%)": 90.4}
{"compound": "C[N+]1(C)CCC(=C(c2ccccc2)c2ccccc2)CC1", "cell viability (%)": 107}
{"compound": "CCCc1nc(C(C)(C)O)c(C(=O)O)n1Cc1ccc(-c2ccccc2-c2nnn[nH]2)cc1", "cell viability (%)": 101}
{"compound": "CC12CCC(C(=O)N(CCCCN3CCN(c4ccccn4)CC3)C1=O)C2(C)C (stereo not drawn)", "cell viability (%)": 105}
{"compound": "CN1[C@@H]2CC[C@H]1C[C@@H](OC(=O)c1c[nH]c3ccccc13)C2", "cell viability (%)": 93.8}
{"compound": "COc1ccc(CN(CCN(C)C)c2ncccn2)cc1", "cell viability (%)": 103}
{"compound": "Clc1ccccc1C(c1ccccc1)(c1ccccc1)n1ccnc1", "cell viability (%)": 102}
{"compound": "COCCN(C(=O)c1cc(OC)c(OC)c(OC)c1)c1nc(-c2ccccc2)cs1", "cell viability (%)": 96.2}
{"compound": "C[C@H]1O[C@@H](O[C@H]2[C@@H](O)C[C@H](O[C@H]3[C@@H](O)C[C@H](O[C@H]4CC[C@@]5(C)[C@H](CC[C@@H]6[C@@H]5C[C@@H](O)[C@]5(C)[C@@H](C7=CC(=O)OC7)CC[C@]65O)C4)O[C@@H]3C)O[C@@H]2C)C[C@H](O)[C@@H]1O", "cell viability (%)": 102}
{"compound": "CC(C)(C)n1nc(-c2cccc3ccccc23)c2c(N)ncnc21", "cell viability (%)": 104}
